Reference for the values: patent US12495798B2

test system: rice; test: Phytotoxicity test for field crops (soil treatment test); assay type: in vivo; parameters: key: 0 (no harm); 9 (complete withered); settings: 50 g ai/ha; Rice (10 days after treatment)

SMILES REPRESENTATION	Soil treatment phytotoxicity, Rice
Cn1ncnc1COc1nc(C(F)(F)F)ccc1C(=O)Nc1nnnn1C	9
Cn1nnc(COc2nc(C(F)(F)F)ccc2C(=O)Nc2nnnn2C)n1	3
Cn1nnc(COCc2nc(C(F)(F)Cl)ccc2C(=O)Nc2nnnn2C)n1	6
Cn1nnc(CSCc2nc(C(F)(F)F)ccc2C(=O)N(C(=O)c2ccccc2)c2nnnn2C)n1	0

###

tested on: barnyard grass; assay: Herbicidal activity test against upland field weeds (foliar treatment test); assay type: in vivo; details: Echinochloa crus-galli, 50 g ai/ha, scale 0-100
READOUT TYPE: pest or weed control at 50 g/ha

SMILES REPRESENTATION	RECORDED RESULT
Cn1nnc(CSCc2nc(C(F)(F)F)ccc2C(=S)Nc2nnnn2C)n1	70%
Cn1nc(COCc2nc(C(F)(F)F)ccc2C(=O)Nc2nnnn2C)nc1C#N	98%
Cn1nnc(COCc2nc(C(F)(F)F)ccc2C(=O)N(c2nnnn2C)S(C)(=O)=O)n1	70%
CON(Cc1nnn(C)n1)Cc1nc(C(F)(F)Cl)ccc1C(=O)Nc1nnnn1C	80%
Cn1nnnc1NC(=O)c1ccc(C(F)(F)F)nc1COCc1nc(C(F)(F)F)n(C)n1	95%
Cc1nc(COCc2nc(C(F)(F)F)ccc2C(=S)Nc2nnnn2C)nn1C	98%
Cn1nnc(CSCc2nc(C(F)F)ccc2C(=O)Nc2nnnn2C)n1	60%
Cn1cnc(COCc2nc(C(F)(F)Cl)ccc2C(=O)Nc2nnnn2C)n1	80%

###

test system: indian jointvetch; assay: Herbicidal activity test against upland field weeds (foliar treatment test); format: in vivo; conditions: 50 g ai/ha, scale 0-100

COMPOUND	pest or weed control at 50 g/ha (%)
Cn1nnc(CSCc2nc(C(F)F)ccc2C(=O)Nc2nnnn2C)n1 [Compound No. 2-108]	80
CCn1nnc(COCc2nc(C(F)(F)F)ccc2C(=O)Nc2nnnn2C)n1 [Compound No. 2-87]	20
COCn1nnc(COCc2nc(C(F)(F)F)ccc2C(=O)Nc2nnnn2C)n1 [Compound No. 2-91]	95
Cn1nnc(COCc2nc(C(F)(F)F)ccc2C(=O)N(C(=O)c2ccccc2)c2nnnn2C)n1 [Compound No. 2-68]	98
Cn1cnc(COc2nc(C(F)(F)F)ccc2C(=O)Nc2nnnn2C)n1 [Compound No. 2-43]	20
C=Cc1nc(COCc2nc(C(F)(F)F)ccc2C(=O)Nc2nnnn2C)nn1C [Compound No. 2-127]	20
Cn1nnnc1COc1nc(C(F)(F)F)ccc1C(=O)Nc1nnnn1C [Compound No. 1-1]	30
Cn1nnnc1NC(=O)c1ccc(C(F)(F)F)nc1COCc1nnnn1C(F)F [Compound No. 1-85]	40

###

Listed next: entries and their corresponding Foliar treatment phytotoxicity, Wheat.
test system: wheat; test: Phytotoxicity test for upland field crops (foliar treatment test); type: in vivo; parameters: key: 0 (no harm); 9 (complete withered); details: 50 g ai/ha, Wheat (7 days after treatment)

COMPOUND	Foliar treatment phytotoxicity, Wheat
CCn1nnnc1NC(=O)c1ccc(C(F)(F)F)nc1COCc1nc(C(F)(F)F)n(C)n1	0
CCCn1nnnc1NC(=O)c1ccc(C(F)(F)F)nc1COCc1ncn(C)n1	1
Cn1nnnc1NC(=O)c1ccc(C(F)(F)F)nc1OCc1nnnn1C(F)F	0
Cn1nnc(CSCc2nc(C(F)F)ccc2C(=O)Nc2nnnn2C)n1	3
COCn1nnc(COCc2nc(C(F)(F)F)ccc2C(=O)Nc2nnnn2C)n1	0
C=CCn1nnnc1NC(=O)c1ccc(C(F)(F)F)nc1COCc1nnn(CC)n1	0
CCOC(=O)OC(C)N(C(=O)c1ccc(C(F)(F)F)nc1COCc1nnn(C)n1)c1nnnn1C (centres unmarked)	2
CCn1nnc(COCc2nc(C(F)(F)F)ccc2C(=O)Nc2nnnn2CC)n1	0
